Below, each entry is listed with its recorded melting point.

Previously resolved entries follow.
compound | result
CNC(=O)NCCn1c(-c2ccc(CN3CCOCC3)cc2C)cs/c1=N\c1cccc(F)c1F [Example 26] | 132 to 135 °C
CNC(=O)NCCn1c(-c2ccc(CN3CCOCC3)c(OC)c2)cs/c1=N\c1cccc(F)c1F [Example 32] | 150 to 153 °C
CNC(=O)NCCn1c(-c2ccc(CN3CCOCC3)c(OC)c2)cs/c1=N\c1ccc(F)cc1F [Example 33] | 164 to 169 °C
CCNC(=O)c1ccc(-c2cs/c(=N\c3cccc(Cl)c3)n2CCNC(=O)NC)cc1 [Example 63] | 185 to 192 °C
CCNC(=O)c1ccc(-c2cs/c(=N\c3ccc(F)c(F)c3)n2CCNC(=O)NC)cc1 [Example 62] | 180 to 188 °C
CNC(=O)NCCn1c(-c2ccc(C(=O)NC3CC3)cc2)cs/c1=N\c1cccc(F)c1 [Example 64] | 179 to 185 °C
CCNC(=O)NCCn1c(-c2ccc(C(=O)N3CCOCC3)cc2)cs/c1=N\c1ccc(F)c(C)c1 [Example 53] | 183 to 186 °C
CNC(=O)NCCn1c(-c2ccc(CN3CCOCC3)cc2OC)cs/c1=N\c1cccc(F)c1F [Example 30] | 161 to 165 °C
CCNC(=O)c1ccc(-c2cs/c(=N\c3cccc(F)c3)n2CCNC(=O)NC)cc1 [Example 60] | 170 to 176 °C
CCNC(=O)c1ccc(-c2cs/c(=N\c3ccc(F)cc3)n2CCNC(=O)NC)cc1 [Example 61] | 172 to 178 °C

Quick one: melting point of CNC(=O)NCCn1c(-c2ccc(CN3CCOCC3)cc2C)cs/c1=N\c1ccc(F)cc1F [Example 25] ?
154 to 160 °C

Quick one: melting point of CCNC(=O)NCCn1c(-c2ccc(C(=O)N3CCOCC3)cc2)cs/c1=N\c1ccc(F)c(C)c1 [Example 58] ?
196 to 203 °C

Quick one: melting point of CNC(=O)NCCn1c(-c2ccc(CN3CCOCC3)c(C)c2)cs/c1=N\c1cccc(F)c1 [Example 27] ?
151 to 152 °C

Quick one: melting point of CCNC(=O)NCCn1c(-c2ccc(C(=O)N3CCOCC3)cc2)cs/c1=N\c1cccc(F)c1 [Example 57] ?
172 to 177 °C

Quick one: melting point of CCNC(=O)NCCn1c(-c2ccc(C(=O)N3CCOCC3)cc2)cs/c1=N\c1cccc(Cl)c1 [Example 59] ?
191 to 198 °C
